# Species: Rattus norvegicus
# assay text: DrugMatrix - Regimen: Daily Repeat
# Format: toxicity, organism-based, Sprague-Dawley
# Design: regimen Daily Repeat, gender Male, age 6-8 weeks
# stated conditions: in vivo, po, 10 mg/kg, 120 h, tissue Blood, route oral GAVAGE, dose level Low, time 5 day, vehicle .5 % CMC
measurement type: MEAN CORPUSCULAR HEMOGLOBIN CONCENTRATION (G/DL)

{"columns": ["compound", "reading unit", "quantitative result"],
 "data": [
  ["CNCCC(Oc1ccc(C(F)(F)F)cc1)c1ccccc1 (centres undefined) [FLUOXETINE]", "G/DL", 39.1],
  ["O=C1C(CC[S+]([O-])c2ccccc2)C(=O)N(c2ccccc2)N1c1ccccc1 (centres undefined) [SULFINPYRAZONE]", "G/DL", 39.17],
  ["Fc1ccc(C(c2ccc(F)cc2)N2CCN(C/C=C/c3ccccc3)CC2)cc1 [FLUNARIZINE]", "G/DL", 39.17],
  ["O=C1CN=C(c2ccccc2Cl)c2cc([N+](=O)[O-])ccc2N1 [CLONAZEPAM]", "G/DL", 39.3]
]}

###

# Organism: Rattus norvegicus
# assay text: DrugMatrix - Regimen: Daily Repeat
# Format: toxicity, organism-based, Sprague-Dawley
# Parameters: regimen Daily Repeat, gender Male, age 6-8 weeks
# stated conditions: in vivo, po, 0 mg/kg, 120 h, tissue Plasma, route oral GAVAGE, dose level Control, time 5 day, […]

{"columns": ["compound", "CARBON DIOXIDE / mmol/L"],
 "data": [
  ["CC(C)(C)NC(=O)[C@H]1CC[C@H]2[C@@H]3CC[C@H]4NC(=O)C=C[C@]4(C)[C@H]3CC[C@]12C [FINASTERIDE]", 32.67],
  ["COc1cc(N)c(Cl)cc1C(=O)NC1CCN(CCCOc2ccc(F)cc2)CC1OC (centres undefined) [CISAPRIDE]", 37],
  ["Clc1ccc(COC(Cn2ccnc2)c2ccc(Cl)cc2Cl)cc1 (centres undefined) [ECONAZOLE]", 26.33],
  ["CO[C@H]1/C=C/O[C@@]2(C)Oc3c(C)c(O)c4c(O)c(c(/C=N/N5CCN(C6CCCC6)CC5)c(O)c4c3C2=O)NC(=O)/C(C)=C\\C=C\\[C@H](C)[C@H](O)[C@@H](C)[C@@H](O)[C@@H](C)[C@H](OC(C)=O)[C@@H]1C [RIFAPENTINE]", 26]
]}

###

# Organism: Rattus norvegicus
# assay text: DrugMatrix - Regimen: Daily Repeat
# Assay type: toxicity, organism-based, Sprague-Dawley
# Parameters: regimen Daily Repeat, gender Male, age 6-8 weeks
# stated conditions: in vivo, sc, 2 mg/kg, […], tissue Blood, route mini-PUMP - SUBCUTANEOUS, dose level High, time 14 day, vehicle 100 % SALINE

{"columns": ["molecule", "reading unit", "ABSOLUTE EOSINOPHIL"],
 "data": [
  ["CC(C)NCC(O)c1ccc(O)c(O)c1 (stereo unspecified)", "cells/µL", 110]
]}

###

# Species on record: Rattus norvegicus
# assay text: DrugMatrix - Regimen: Daily Repeat
# Type: toxicity, organism-based, Sprague-Dawley
# Parameters: regimen Daily Repeat, gender Male, age 6-8 weeks
# stated conditions: in vivo, po, 10 mg/kg, 72 h, tissue Blood, route oral GAVAGE, dose level Low, time 3 day, vehicle .5 % CMC
This section presents compounds with their documented LEUKOCYTE COUNT values.
measurement type: LEUKOCYTE COUNT (x10E3/uL)

{"columns": ["compound", "quantitative result"],
 "data": [
  ["Fc1ccc(C(c2ccc(F)cc2)N2CCN(C/C=C/c3ccccc3)CC2)cc1 [FLUNARIZINE]", 16.53],
  ["O=C1C(CC[S+]([O-])c2ccccc2)C(=O)N(c2ccccc2)N1c1ccccc1 (centres undefined) [SULFINPYRAZONE]", 14.63],
  ["O=C1CN=C(c2ccccc2Cl)c2cc([N+](=O)[O-])ccc2N1 [CLONAZEPAM]", 13.07],
  ["CNCCC(Oc1ccc(C(F)(F)F)cc1)c1ccccc1 (centres undefined) [FLUOXETINE]", 11.83]
]}
